# Tested on: HIV-1IIIB
# ASSAY INFO: HIV-1IIIB infection assay (MT-2 cells, p24 ELISA)
# Format: cell-based
# EXPERIMENTAL PARAMETERS: 100 TCID50, p24 ELISA on fourth day post-infection, triplicate, mean ± standard deviation, read-out: EC50 (nM) for inhibiting HIV–1IIIB infection
# Procedure: To measure the inhibitory activity of the peptides on infection of HIV-1IIIB and HIV-1BaL, 1 × 10^4 MT-2 cells and TZM-b1 cells, respectively, were infected with 100 times the median tissue culture infective dose of a virus in the presence or absence of the peptides at graded concentrations. […] The percent inhibition by the peptides and EC50 values was calculated using Calcusyn software.[27]
Bridge positions count the residues as written; N and C are the ends. I, II: the chains in the order shown.
MEASUREMENT LABEL: EC50

As a guide, the following entries are already answered.
- SUBSTANCE: "I: Ac-WRIQQIEQKIHHIEQRIQQIEQRIQQIEQ-NH2 / II: Ac-WRIQQIEQKIHHIEQRIQQIEQRIQQIEQ-NH2 / III: Ac-WRIQQIEQKIHHIEQRIQQIEQRIQQIEQ-NH2 (amide I:9-III:14, I:14-II:9, II:14-III:9) [(4HR)3]"
  EC50: "> 10000 nM"
- SUBSTANCE: "W RIQQIEQ KI HHIE Q RIQQIEQ RIEAQQH LLQLTVW GIKQLQA RIL (sidechain bridge or staple) [(3HRN23)3]"
  EC50: "21.3 nM"

We next turn to a different substance, shown below.
Determine its reported EC50: I: Ac-WRIQQIEQKIHHIEQRIQQIEQ-NH2 / II: Ac-WRIQQIEQKIHHIEQRIQQIEQ-NH2 / III: Ac-WRIQQIEQKIHHIEQRIQQIEQ-NH2 (amide I:9-III:14, I:14-II:9, II:14-III:9) [(3HR)3]
> 10000 nM
